Molecular target: CYP2D6 (Homo sapiens)
Sequence (P10635 whole entry): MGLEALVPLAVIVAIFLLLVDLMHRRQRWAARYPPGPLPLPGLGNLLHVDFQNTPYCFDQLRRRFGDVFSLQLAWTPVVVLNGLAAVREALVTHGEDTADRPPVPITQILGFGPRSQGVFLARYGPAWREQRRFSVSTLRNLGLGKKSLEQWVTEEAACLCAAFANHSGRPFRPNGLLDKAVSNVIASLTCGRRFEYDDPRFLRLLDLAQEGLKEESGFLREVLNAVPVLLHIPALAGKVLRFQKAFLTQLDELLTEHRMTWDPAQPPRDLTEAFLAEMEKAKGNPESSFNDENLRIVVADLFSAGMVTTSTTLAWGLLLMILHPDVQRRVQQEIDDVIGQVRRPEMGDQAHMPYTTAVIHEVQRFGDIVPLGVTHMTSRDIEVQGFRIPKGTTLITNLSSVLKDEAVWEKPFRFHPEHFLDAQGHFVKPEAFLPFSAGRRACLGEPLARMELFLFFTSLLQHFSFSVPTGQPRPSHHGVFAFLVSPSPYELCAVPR
Experiment: Inhibition of CYP2D6 in human liver microsomes using dextromethorphan as substrate at 10 uM preincubated for 10 mins followed by incubation with NADPH for 10 mins by LC- MS/MS analysis
Assay type: ADME
Settings: probe dextromethorphan, time 20 min

structureAsSmiles | inhibition at 10 min, 10 µM / %
N#Cc1c(N2CCOCC2)sc(-c2nc[nH]n2)c1-c1ccc(NC(=O)Nc2ccccc2Cl)cc1 | 28

----------
Target: PI3K p110 beta/p85 alpha (Homo sapiens)
Sequence (P27986 whole entry): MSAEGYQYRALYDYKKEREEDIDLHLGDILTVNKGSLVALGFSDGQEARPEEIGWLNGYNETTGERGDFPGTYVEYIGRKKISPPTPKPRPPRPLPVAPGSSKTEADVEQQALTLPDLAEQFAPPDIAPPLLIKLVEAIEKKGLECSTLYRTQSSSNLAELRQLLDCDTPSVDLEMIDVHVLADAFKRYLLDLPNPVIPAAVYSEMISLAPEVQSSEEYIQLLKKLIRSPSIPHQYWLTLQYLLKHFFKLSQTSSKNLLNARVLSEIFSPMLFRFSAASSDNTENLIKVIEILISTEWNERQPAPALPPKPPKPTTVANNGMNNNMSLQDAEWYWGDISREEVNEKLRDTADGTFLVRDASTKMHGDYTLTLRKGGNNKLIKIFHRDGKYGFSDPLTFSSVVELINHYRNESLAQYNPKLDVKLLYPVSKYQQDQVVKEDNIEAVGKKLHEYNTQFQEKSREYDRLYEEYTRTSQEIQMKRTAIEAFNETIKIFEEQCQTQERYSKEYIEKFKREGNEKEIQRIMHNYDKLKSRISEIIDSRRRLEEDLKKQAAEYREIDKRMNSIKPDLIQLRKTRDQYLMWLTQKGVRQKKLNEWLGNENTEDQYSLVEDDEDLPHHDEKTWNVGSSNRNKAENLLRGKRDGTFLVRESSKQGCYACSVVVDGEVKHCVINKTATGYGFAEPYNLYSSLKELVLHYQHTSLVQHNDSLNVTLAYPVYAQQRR
Sequence (P42338 whole entry): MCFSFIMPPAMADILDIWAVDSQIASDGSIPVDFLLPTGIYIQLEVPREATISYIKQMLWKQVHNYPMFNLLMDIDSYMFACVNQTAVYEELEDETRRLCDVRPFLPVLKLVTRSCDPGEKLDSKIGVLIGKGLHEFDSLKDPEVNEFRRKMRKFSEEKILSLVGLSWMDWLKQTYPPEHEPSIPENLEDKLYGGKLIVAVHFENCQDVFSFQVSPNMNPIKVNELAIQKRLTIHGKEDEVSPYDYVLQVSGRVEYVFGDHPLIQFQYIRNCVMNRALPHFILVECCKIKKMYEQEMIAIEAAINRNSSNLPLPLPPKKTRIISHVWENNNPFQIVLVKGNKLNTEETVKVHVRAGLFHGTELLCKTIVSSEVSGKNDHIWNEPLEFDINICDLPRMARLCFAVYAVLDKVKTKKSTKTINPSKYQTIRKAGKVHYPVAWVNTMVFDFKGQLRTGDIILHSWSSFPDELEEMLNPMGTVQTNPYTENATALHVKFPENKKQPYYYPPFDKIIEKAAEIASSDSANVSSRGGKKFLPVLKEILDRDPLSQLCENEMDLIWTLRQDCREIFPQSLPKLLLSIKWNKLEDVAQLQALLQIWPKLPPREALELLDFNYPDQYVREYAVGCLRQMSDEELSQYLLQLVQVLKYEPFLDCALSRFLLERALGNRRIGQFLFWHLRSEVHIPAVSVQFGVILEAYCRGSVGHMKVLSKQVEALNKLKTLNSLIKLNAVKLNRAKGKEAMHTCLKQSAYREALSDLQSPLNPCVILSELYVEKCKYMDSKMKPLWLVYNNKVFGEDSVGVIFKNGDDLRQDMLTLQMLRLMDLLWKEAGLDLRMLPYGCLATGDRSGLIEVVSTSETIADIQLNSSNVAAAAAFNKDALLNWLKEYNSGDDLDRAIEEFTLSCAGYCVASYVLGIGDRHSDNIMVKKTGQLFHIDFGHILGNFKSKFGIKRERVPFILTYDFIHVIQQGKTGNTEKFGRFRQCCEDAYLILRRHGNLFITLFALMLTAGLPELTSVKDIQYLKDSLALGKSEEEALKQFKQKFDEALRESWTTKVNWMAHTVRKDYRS
Assay: Inhibition of N-terminal His6-tagged human recombinant full length PI3Kbeta co-expressed with human recombinant full length P85alpha in baculovirus infected Sf21 cells using PIP2 peptide as substrate incubated for 1 hr in presence ATP by ADP-Glo Kinase Assay
pIC50: −log10 of the molar value.
endpoint: pIC50

structureAsSmiles | systemName | quantitativeReadout
N#Cc1c(N2CCOCC2)sc(-c2nc[nH]n2)c1-c1ccc(NC(=O)Nc2ccc(F)cc2)cc1 | PI3K p110 beta/p85 alpha (Homo sapiens) | 7.02
N#Cc1c(N2CCOCC2)sc(-c2nc[nH]n2)c1-c1ccc(NC(=O)Nc2ccccc2F)cc1 | PI3K p110 beta/p85 alpha (Homo sapiens) | 7.05
N#Cc1c(N2CCOCC2)sc(-c2nc[nH]n2)c1-c1ccc(NC(=O)N/N=C/c2cccc(O)c2)cc1 | PI3K p110 beta/p85 alpha (Homo sapiens) | 7.37
N#Cc1c(N2CCOCC2)sc(-c2nc[nH]n2)c1-c1ccc(NC(=O)N/N=C/c2ccco2)cc1 | PI3K p110 beta/p85 alpha (Homo sapiens) | 7.13
N#Cc1c(N2CCOCC2)sc(-c2nc[nH]n2)c1-c1ccc(NC(=O)Nc2ccccc2Cl)cc1 | PI3K p110 beta/p85 alpha (Homo sapiens) | 6.97
N#Cc1ccc(-c2c(-c3nnc[nH]3)sc(N3CCOCC3)c2C#N)c(F)c1 | PI3K p110 beta/p85 alpha (Homo sapiens) | 6.91
N#Cc1c(N2CCOCC2)sc(-c2nc[nH]n2)c1-c1ccc(NC(=O)N/N=C/c2ccccn2)cc1 | PI3K p110 beta/p85 alpha (Homo sapiens) | 7.28

----------
Experiment: Half life in human liver microsomes at 1 uM by LC-MS/MS analysis
Assay type: ADME, Microsome

structureAsSmiles | half-life at 1 µM, min
N#Cc1c(N2CCOCC2)sc(-c2nc[nH]n2)c1-c1ccc(NC(=O)Nc2ccccc2Cl)cc1 | 58.3

----------
Molecular target: PI3-kinase p110-delta/p85-alpha (Homo sapiens)
Sequence (P27986 whole entry): as the sequence (P27986 whole entry) above
Sequence (O00329 whole entry): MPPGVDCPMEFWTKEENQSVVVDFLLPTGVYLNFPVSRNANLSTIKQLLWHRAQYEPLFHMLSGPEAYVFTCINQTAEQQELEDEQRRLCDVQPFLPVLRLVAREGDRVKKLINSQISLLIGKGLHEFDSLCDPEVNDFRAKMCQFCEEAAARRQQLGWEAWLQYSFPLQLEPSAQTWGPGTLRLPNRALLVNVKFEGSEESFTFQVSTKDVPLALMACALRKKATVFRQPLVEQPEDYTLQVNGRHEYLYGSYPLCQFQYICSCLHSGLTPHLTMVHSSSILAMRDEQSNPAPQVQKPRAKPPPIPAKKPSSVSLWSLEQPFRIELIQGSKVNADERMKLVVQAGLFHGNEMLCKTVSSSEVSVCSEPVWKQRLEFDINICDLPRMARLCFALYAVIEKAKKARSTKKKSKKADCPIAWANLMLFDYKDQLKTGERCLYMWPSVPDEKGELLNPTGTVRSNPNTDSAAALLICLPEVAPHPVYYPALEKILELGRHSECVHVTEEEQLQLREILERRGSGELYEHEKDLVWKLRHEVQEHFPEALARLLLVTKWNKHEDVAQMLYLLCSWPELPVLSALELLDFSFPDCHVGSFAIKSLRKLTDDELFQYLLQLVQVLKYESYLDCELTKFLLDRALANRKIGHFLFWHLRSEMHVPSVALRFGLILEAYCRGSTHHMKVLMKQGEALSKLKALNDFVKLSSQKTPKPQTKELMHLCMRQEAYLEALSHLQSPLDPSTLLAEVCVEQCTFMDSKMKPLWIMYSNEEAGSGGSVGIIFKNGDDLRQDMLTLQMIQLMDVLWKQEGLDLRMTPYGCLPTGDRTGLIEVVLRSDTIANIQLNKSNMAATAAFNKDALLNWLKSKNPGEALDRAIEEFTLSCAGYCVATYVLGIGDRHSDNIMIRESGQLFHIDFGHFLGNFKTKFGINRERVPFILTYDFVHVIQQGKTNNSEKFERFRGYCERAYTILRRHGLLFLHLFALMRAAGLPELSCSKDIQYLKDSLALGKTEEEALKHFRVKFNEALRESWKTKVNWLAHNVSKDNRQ
Experiment: Inhibition of N-terminal His6-tagged human recombinant full length PI3Kdelta co-expressed with human recombinant full length P85alpha in baculovirus infected Sf21 cells using PIP2 peptide as substrate incubated for 2 hrs in presence ATP by ADP-Glo Kinase Assay
The entries below are paired with their reported IC50.

structureAsSmiles | unitOfMeasure | IC50
N#Cc1c(N2CCOCC2)sc(-c2nc[nH]n2)c1-c1ccc(NC(=O)N/N=C/c2ccco2)cc1 | nM | 74
N#Cc1c(N2CCOCC2)sc(-c2nc[nH]n2)c1-c1ccc(NC(=O)N/N=C/c2ccccn2)cc1 | nM | 49
N#Cc1c(N2CCOCC2)sc(-c2nc[nH]n2)c1-c1ccc(NC(=O)N/N=C/c2cccc(O)c2)cc1 | nM | 72
N#Cc1c(N2CCOCC2)sc(-c2nc[nH]n2)c1-c1ccc(NC(=O)Nc2ccccc2F)cc1 | nM | 334
